- measurement_target: Giardia flavohemoglobin (gFlHb) (Giardia intestinalis, UniProt E2RTZ4)
- procedure_text: biochemical
- measurement_conditions: Inhibition constant, gFlHb (bound), NOD inhibition, pH 6.5, 37 °C
test_readout: Ki

I am curious: what Ki value has been reported for Cn1ccnc1 ? > 1000 µM

====

- measurement_target: UniProt E2RTZ4
- procedure_text: biochemical
test_readout: Ki (µM)
Numbers only, in µM.

Reported Ki, molecule Cn1ccnc1 : ____ 1200

====

- measurement_target: E. coli flavohemoglobin (Hmp) (Escherichia coli)
- procedure_text: Nitric oxide dioxygenase (NOD) inhibition assay, Hmp
- Assay type: biochemical
- measurement_conditions: read-out: Nitric oxide dioxygenase inhibition constant Ki, Hmp; pH 6.5, 37 °C, 100 μM NADH, 1 μM NO; imidazole: Ki of the inhibitor-sensitive phase of a biphasic fit
test_readout: pKi
Answers are plain numbers, as −log10 of the molar value.

So what's the measured pKi for this one? c1c[nH]cn1 [Imidazole, imidazole] 4.16

====

- measurement_target: E. coli flavohemoglobin (Hmp) (Escherichia coli, UniProt P24232)
- Sequence (P24232 whole entry): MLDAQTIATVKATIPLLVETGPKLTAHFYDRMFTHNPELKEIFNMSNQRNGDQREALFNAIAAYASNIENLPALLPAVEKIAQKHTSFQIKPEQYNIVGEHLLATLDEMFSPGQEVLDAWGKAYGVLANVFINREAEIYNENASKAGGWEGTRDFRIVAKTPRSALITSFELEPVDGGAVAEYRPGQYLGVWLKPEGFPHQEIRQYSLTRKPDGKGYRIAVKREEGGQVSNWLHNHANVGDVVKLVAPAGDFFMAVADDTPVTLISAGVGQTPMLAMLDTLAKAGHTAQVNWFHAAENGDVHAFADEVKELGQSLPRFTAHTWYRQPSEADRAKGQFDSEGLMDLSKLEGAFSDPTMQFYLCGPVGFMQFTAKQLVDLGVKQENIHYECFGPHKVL
- procedure_text: Nitric oxide dioxygenase (NOD) inhibition assay, Hmp
- Type: biochemical
- measurement_conditions: Nitric oxide dioxygenase inhibition constant Ki, Hmp, pH 6.5, 37 °C, 100 μM NADH, 1 μM NO; imidazole: Ki of the inhibitor-sensitive phase of a biphasic fit
test_readout: pKi
Give bare numbers, as −log10 of the molar value.

I'd like to know its pKi. The compound in question is Cn1ccnc1 2.85

====

Please respond with reported Ki for every item in the list.
- measurement_target: Giardia flavohemoglobin (gFlHb) (Giardia intestinalis, UniProt E2RTZ4)
- Sequence (E2RTZ4 1-458): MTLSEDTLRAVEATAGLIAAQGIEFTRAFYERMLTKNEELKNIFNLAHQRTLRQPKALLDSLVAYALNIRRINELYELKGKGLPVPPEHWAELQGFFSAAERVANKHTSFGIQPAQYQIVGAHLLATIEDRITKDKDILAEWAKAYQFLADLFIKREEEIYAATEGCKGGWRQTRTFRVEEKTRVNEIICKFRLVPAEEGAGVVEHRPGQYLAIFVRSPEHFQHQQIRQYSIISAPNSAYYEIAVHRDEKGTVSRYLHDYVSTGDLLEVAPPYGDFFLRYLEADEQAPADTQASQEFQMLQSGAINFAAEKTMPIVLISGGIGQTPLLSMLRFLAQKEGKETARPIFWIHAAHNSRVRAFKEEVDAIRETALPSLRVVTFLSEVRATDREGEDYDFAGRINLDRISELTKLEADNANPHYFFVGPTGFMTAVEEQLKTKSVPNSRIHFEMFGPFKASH
- procedure_text: biochemical
- measurement_conditions: pH 6.5, 37 °C, 100 μM NADH, 1 μM NO; imidazole and nitrite: Ki of the inhibitor-sensitive phase of a biphasic fit; read-out: Nitric oxide dioxygenase inhibition constant Ki, gFlHb
Numbers only, in µM.

O=NO [Nitrite, nitrite] ... 32

Now for a further compound.
Record request: Ki value, item c1c[nH]cn1 [Imidazole, imidazole] 20
